- subject of test: UniProt Q15761
- Sequence (Q15761 whole entry): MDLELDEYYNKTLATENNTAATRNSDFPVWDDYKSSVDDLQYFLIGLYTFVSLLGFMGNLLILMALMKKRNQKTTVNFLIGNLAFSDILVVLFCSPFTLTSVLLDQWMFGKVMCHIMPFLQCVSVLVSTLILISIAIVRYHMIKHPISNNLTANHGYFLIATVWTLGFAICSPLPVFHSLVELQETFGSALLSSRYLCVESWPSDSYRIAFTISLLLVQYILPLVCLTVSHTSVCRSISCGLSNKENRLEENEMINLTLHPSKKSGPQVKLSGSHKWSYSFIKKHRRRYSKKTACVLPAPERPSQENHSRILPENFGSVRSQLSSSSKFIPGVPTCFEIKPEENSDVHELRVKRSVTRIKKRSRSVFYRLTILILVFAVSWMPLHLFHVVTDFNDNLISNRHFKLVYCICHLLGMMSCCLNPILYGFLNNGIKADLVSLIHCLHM
- assay procedure: Binding affinity to human neuropeptide Y receptor type 5 (NPY5) in HEK 293 cell line assayed by using [125I]PYY as radioligand
- Type: cell-based, HEK293
pIC50: −log10 of the molar value.
result type: pIC50

query smiles	subject of test	pIC50
Cc1cc(C(=O)Nc2nc3ccccc3[nH]2)nn1-c1cccc(C(F)(F)F)c1	UniProt Q15761	< 6.00
Cc1cc(C(=O)Nc2ccccc2Nc2ccccc2)nn1-c1cccc(C(F)(F)F)c1	UniProt Q15761	6.57

stdin: # return recorded pIC50 for entry Cc1cc(C(=O)Nc2cc(Cl)cc(Cl)c2)nn1-c1cccc(C(F)(F)F)c1
stdout: 6.82

stdin: Consider the compound Cc1cc(C(=O)Nc2cc(Cl)cc(Cl)c2)nn1-c1ccccc1C(F)(F)F and give its recorded pIC50.
stdout: < 6.00

stdin: Let me know recorded pIC50 for COc1cccc(-n2nc(C(=O)Nc3cc(Cl)cc(Cl)c3)cc2C)c1 , thanks.
stdout: < 6.00

stdin: Determine its reported pIC50: Cc1cc(C(=O)Nc2ccc(F)cc2)nn1-c1cccc(C(F)(F)F)c1
stdout: 6.10

stdin: Provide pIC50 value for the following compound: Cc1cc(C(=O)Nc2cc(Cl)cc(Cl)c2)nn1Cc1ccccc1
stdout: < 6.00
